Tested on: THLE-2
test-details: Cytotoxicity against human THLE2 cells assessed as reduction in cell viability after 72 hrs by MTS assay
Assay type: cell-based
condition-info: thle-2, 72 h
Form field: LC50 (one value per entry).
Report the value in nM with no unit label.

Previously resolved entries follow.
{"compound": "COc1cc2c(NC3C4CCC3CN(C)C4)cc(-c3ccc(C)o3)nc2cc1OCCCN1CCCC1 (centres undefined)", "LC50 (nM)": 527}
{"compound": "COc1cc2c(NCC3CCN(C(C)C)CC3)cc(-c3ccc(C)o3)nc2cc1OCCCN1CCCC1", "LC50 (nM)": 777}
{"compound": "COc1cc2c(NC3CCN(C)C(=O)C3)cc(-c3ccc(C)o3)nc2cc1OCCCN1CCCC1 (centres undefined)", "LC50 (nM)": 7950}

input: Which LC50 reading was recorded for the compound "COc1cc2c(NC3CCN(C)CC3)cc(-c3ccc(C)o3)nc2cc1OCCCN1CCCC1" ?
output: 1780

input: How about this compound: "COc1cc2c(NCC3CCN(C)CC3)cc(-c3ccc(C)o3)nc2cc1OCCCN1CCCC1"
output: 1300

input: How about this compound: COc1cc2c(NC3CC4(CCN(C)C4)C3)cc(-c3ccc(C)o3)nc2cc1OCCCN1CCCC1 (centres undefined)
output: 8380

input: How about this compound: "COc1cc2c(NC3CC4(CCN(C(C)C)CC4)C3)cc(-c3ccc(C)o3)nc2cc1OCCCN1CCCC1"
output: 841

input: How about this compound: "CCc1ccc(-c2cc(NC3CCN(C)CC3)c3cc(OC)c(OCCCN4CCC5(CC5)C4)cc3n2)o1"
output: 2040

input: How about this compound: CCc1ccc(-c2cc(NC3CCC34CCN(C)CC4)c3cc(OC)c(OCCCN4CCCC4)cc3n2)o1 (centres undefined)
output: 517

input: How about this compound: "COc1cc2c(NC3CCN(C)CC3)cc(-c3ccc(C)o3)nc2cc1OCC1CCN(C)CC1"
output: 1030

input: How about this compound: "COc1cc2c(NC3CC4(CCN(C)CC4)C3)cc(-c3ccc(C)o3)nc2cc1OCC1CCN(C)CC1"
output: 2530

input: How about this compound: COc1cc2c(NC3CCC34CCN(C)C4)cc(-c3ccc(C)o3)nc2cc1OCCCN1CCCC1 (centres undefined)
output: 1980

input: How about this compound: "Cc1ccc(-c2cc(NC3CCN(C)CC3)c3cc(Cl)c(OCCCN4CCCC4)cc3n2)o1"
output: 2310

input: How about this compound: "CCc1ccc(-c2cc(NC3CCN(C)CC3)c3cc(OC)c(OCCCN(C)C)cc3n2)o1"
output: 3520

input: How about this compound: "COc1cc2c(NC3CCN(C)CC3)cc(-c3ccc(C)o3)nc2cc1OCC1CCNCC1"
output: 24800

input: How about this compound: "CCc1ccc(-c2cc(NCC3CCN(C)CC3)c3cc(OC)c(OCCCN4CCCC4)cc3n2)o1"
output: 954

input: How about this compound: COc1cc2c(NC3CC4CCC(C3)N4C)cc(-c3ccc(C)o3)nc2cc1OCCCN1CCCC1 (centres undefined)
output: 4150

* * *

Form field: remaining at 20 min, 1 µM (one value per entry).
test-details: Metabolic stability in mouse liver microsomes assessed as parent compound remaining at 1 uM preincubated for 10 mins followed by NADP addition measured after 20 mins by LC-MS/MS analysis
Format: ADME, microsome
condition-info: read-out: Stability
Report the value in % with no unit label.

Previously resolved entries follow.
{"compound": "CCc1ccc(-c2cc(NCC3CCN(C)CC3)c3cc(OC)c(OCCCN4CCCC4)cc3n2)o1", "reported": 59.1}
{"compound": "COc1cc2c(NC3CC4(CCN(C)CC4)C3)cc(-c3ccc(C)o3)nc2cc1OCCCN1CCCC1", "reported": 40.6}
{"compound": "COc1cc2c(NC3CCN(C)C(=O)C3)cc(-c3ccc(C)o3)nc2cc1OCCCN1CCCC1 (configuration not stated)", "reported": 71.9}
{"compound": "COc1cc2c(NC3CCC34CCN(C)CC4)cc(-c3ccc(C)o3)nc2cc1OCCCN1CCCC1 (configuration not stated)", "reported": 53.3}
{"compound": "COc1cc2c(NC3CCN(C)CC3)cc(-c3ccc(C)o3)nc2cc1OC1CC2(C1)CN(C)C2", "reported": 43.3}

input: Which remaining at 20 min, 1 µM reading was recorded for the compound COc1cc2c(NC3CC4CCC(C3)N4C)cc(-c3ccc(C)o3)nc2cc1OCCCN1CCCC1 (configuration not stated) ?
output: 43.9

input: How about this compound: "Cc1ccc(-c2cc(NC3CCN(C)CC3)c3cc(Cl)c(OCCCN4CCCC4)cc3n2)o1"
output: 81.7

* * *

test-details: Metabolic stability in human liver microsomes assessed as parent compound remaining at 1 uM preincubated for 10 mins followed by NADP addition measured after 20 mins by LC-MS/MS analysis
Type: ADME, microsome
condition-info: read-out: Stability
Form field: remaining at 20 min, 1 µM (one value per entry).
Report the value in % with no unit label.

{"compound": "COc1cc2c(NC3CCC34CCN(C)CC4)cc(-c3ccc(C)o3)nc2cc1OCCCN1CCCC1 (configuration not stated)", "remaining at 20 min, 1 µM / %": 80.4}
{"compound": "Cc1ccc(-c2cc(NC3CCN(C)CC3)c3cc(Cl)c(OCCCN4CCCC4)cc3n2)o1", "remaining at 20 min, 1 µM / %": 81.7}
{"compound": "CCc1ccc(-c2cc(NCC3CCN(C)CC3)c3cc(OC)c(OCCCN4CCCC4)cc3n2)o1", "remaining at 20 min, 1 µM / %": 69}
{"compound": "COc1cc2c(NC3CC4CCC(C3)N4C)cc(-c3ccc(C)o3)nc2cc1OCCCN1CCCC1 (configuration not stated)", "remaining at 20 min, 1 µM / %": 60.3}
{"compound": "COc1cc2c(NC3CCN(C)CC3)cc(-c3ccc(C)o3)nc2cc1OC1CC2(C1)CN(C)C2", "remaining at 20 min, 1 µM / %": 49.8}

input: Which remaining at 20 min, 1 µM reading was recorded for the compound "COc1cc2c(NC3CC4(CCN(C)CC4)C3)cc(-c3ccc(C)o3)nc2cc1OCCCN1CCCC1" ?
output: 68.6

input: How about this compound: COc1cc2c(NC3CCN(C)C(=O)C3)cc(-c3ccc(C)o3)nc2cc1OCCCN1CCCC1 (configuration not stated)
output: 82.7

* * *

System: THLE-2
test-details: Cytotoxicity against human THLE2 cells assessed as reduction in cell viability after 72 hrs by MTS assay
Assay type: cell-based
condition-info: thle-2, 72 h
observed-property: LC50 (nM)
Report the value in nM with no unit label.

Previously resolved entries follow.
{"compound": "COc1cc2c(NC3CCN(C)CC3)cc(-c3ccc(C)o3)nc2cc1OC1CC2(C1)CN(C)C2", "unit-label": "nM", "reported": 698}
{"compound": "CCc1ccc(-c2cc(NC3CCN(C)CC3)c3cc(OC)c(OCCCN4CCCC4)cc3n2)o1", "unit-label": "nM", "reported": 2320}
{"compound": "COc1cc2c(NC3CC4(CCN(C(C)C)CC4)C3)cc(-c3ccc(C)o3)nc2cc1OC1CC2(C1)CN(C)C2 (configuration not stated)", "unit-label": "nM", "reported": 4650}
{"compound": "CCc1ccc(-c2cc(NC3CCN(C)CC3)c3cc(OC)c(OCCCN4CCCCC4)cc3n2)o1", "unit-label": "nM", "reported": 1380}
{"compound": "COc1cc2c(NC3CC4(CCN(C)CC4)C3)cc(-c3ccc(C)o3)nc2cc1OCCCN1CCCC1", "unit-label": "nM", "reported": 992}

Kindly review the next compound as well.
input: Which LC50 reading was recorded for the compound COc1cc2c(NC3CCC34CCN(C)CC4)cc(-c3ccc(C)o3)nc2cc1OCCCN1CCCC1 (configuration not stated) ?
output: 731
